System: NF-κB pathway (SEAP) in THP1-Dual cells
PROTOCOL_SUMMARY: THP-1 Dual cell SEAP assay (L18-MDP stimulated)
Type: cell-based
CONDITION_PARAMETERS: Homo sapiens, THP1-Dual, read-out: NFkB THP1 IC50
pIC50: −log10 of the molar value.

COMPOUND	TARGET_OF_ASSAY	pIC50
COc1cc2ncc(-c3cc(F)nc(NC4CCC4)c3)n2cc1S(=O)(=O)C(C)(C)C [Example 180]	NF-κB pathway (SEAP) in THP1-Dual cells	6.60 to 7.30
COc1cc(-c2cnc3cc(OC)c(S(=O)(=O)C(C)(C)C)cn23)ccc1N [Example 87]	NF-κB pathway (SEAP) in THP1-Dual cells	< 6.00
CCCS(=O)(=O)Nc1cc(OC)cc(-c2cnc3cc(OCC)c(S(=O)(=O)C(C)C)cn23)c1 [Example 132]	NF-κB pathway (SEAP) in THP1-Dual cells	6.60 to 7.30
CCOc1cc2ncc(-c3cc(F)nc(NCCCO)c3)n2cc1C1(F)CCN(C)CC1 [Example 242]	NF-κB pathway (SEAP) in THP1-Dual cells	> 7.30
CCc1ccc(-c2cnc3cc(OC)c(S(=O)(=O)C(C)(C)C)cn23)cc1NS(C)(=O)=O [Example 143]	NF-κB pathway (SEAP) in THP1-Dual cells	< 6.00
COc1cc2ncc(-c3cc(N)c(F)c(F)c3)n2cc1S(=O)(=O)C(C)(C)C [Example 44]	NF-κB pathway (SEAP) in THP1-Dual cells	6.60 to 7.30
COc1cc2ncc(-c3cc(F)nc(NCC4(CO)CC4)c3)n2cc1S(=O)(=O)C(C)(C)C [Example 201]	NF-κB pathway (SEAP) in THP1-Dual cells	> 7.30
COc1cc2ncc(-c3cc(Cl)nc(NCCCO)c3)n2cc1S(=O)(=O)C(C)(C)C [Example 327]	NF-κB pathway (SEAP) in THP1-Dual cells	> 7.30

* * *

pIC50 values for the compounds below.
TARGET_OF_ASSAY: GST-RIPK2 fusion protein (human RIPK2 amino acids 1-310) (Homo sapiens (Human), UniProt O43353)
Sequence (O43353 1-310): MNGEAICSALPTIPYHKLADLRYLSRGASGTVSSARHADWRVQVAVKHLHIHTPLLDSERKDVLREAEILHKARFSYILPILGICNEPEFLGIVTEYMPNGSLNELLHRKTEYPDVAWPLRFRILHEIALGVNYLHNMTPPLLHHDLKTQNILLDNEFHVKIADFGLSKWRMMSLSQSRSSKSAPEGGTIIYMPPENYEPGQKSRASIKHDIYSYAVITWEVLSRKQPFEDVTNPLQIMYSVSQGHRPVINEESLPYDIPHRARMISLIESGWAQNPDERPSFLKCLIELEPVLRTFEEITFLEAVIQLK
PROTOCOL_SUMMARY: RIPK2 binding competition assay (TR-FRET, Tracer 199)
CONDITION_PARAMETERS: read-out: RIPK2 IC50; RIPK2 binding competition assay
pIC50: −log10 of the molar value.

COMPOUND	pIC50
COc1cc2ncc(-c3cnn(CCCO)c3)n2cc1S(=O)(=O)C(C)(C)C [Example 323]	< 7.70
COc1cc2ncc(-c3cc(F)nc(F)c3)n2cc1S(=N)(=O)C(C)(C)C (stereo not shown) [Example 315]	< 7.70
COc1cc2ncc(-c3cc(F)nc(N[C@@H](C)CCO)c3)n2cc1S(=O)(=O)C(C)(C)C [Example 236]	> 9.00
COc1cc2ncc(-c3cc(N)ccc3F)n2cc1S(=O)(=O)C(C)(C)C [Example 32]	< 7.70

* * *

System: NF-κB pathway (SEAP) in THP1-Dual cells
PROTOCOL_SUMMARY: THP-1 Dual cell SEAP assay (L18-MDP stimulated)
Type: cell-based
CONDITION_PARAMETERS: Homo sapiens, THP1-Dual, read-out: NFkB THP1 IC50
Catalogue of molecules with associated IC50

MOLECULE	IC50
CCCS(=O)(=O)Nc1cc(-c2cnc3cc(OC)c(S(=O)(=O)C(C)(C)C)cn23)cc(OC)c1OC	< 50 nM
CCOc1cc2ncc(-c3cc(F)c(N)nc3C)n2cc1S(=O)(=O)C(C)C	> 1000 nM
COc1cc(-c2cnc3cc(OC)c(S(=O)(=O)C(C)(C)C)cn23)c(F)cc1N	250 to 1000 nM
COc1cc2ncc(-c3ccc(N)c(C#N)c3F)n2cc1S(=O)(=O)C(C)(C)C	> 1000 nM
CCCS(=O)(=O)Nc1nc(-c2cnc3cc(OC)c(S(=O)(=O)C(C)(C)C)cn23)ccc1CC	> 1000 nM
COc1cc2ncc(-c3cc(F)c(OC)c(C(C)(C)O)c3)n2cc1S(=O)(=O)C(C)(C)C	250 to 1000 nM
COc1cc(N)cc(-c2cnn3ccc(S(=O)(=O)C(C)(C)C)cc23)c1	> 1000 nM
COc1cc2ncc(-c3ccc(N)c(F)c3F)n2cc1S(=O)(=O)C(C)(C)C	> 1000 nM
COc1cc2ncc(-c3cc(F)nc(NCCC(C)O)c3)n2cc1S(=O)(=O)C(C)(C)C (single isomer, unassigned)	< 50 nM
COc1cc2ncc(-c3cc(F)cc(F)n3)n2cc1S(=O)(=O)C(C)(C)C	250 to 1000 nM
COc1cc2ncc(-c3cnc(N)c(F)c3)n2cc1S(=O)(=O)C(C)(C)C	> 1000 nM
COc1cc2ncc(-c3cc(F)c(N)nc3F)n2cc1C1(F)CCN(C)CC1	> 1000 nM
COc1cc2ncc(-c3cccc(NCCCO)c3)n2cc1S(=O)(=O)C(C)(C)C	> 1000 nM
COc1cc2ncc(-c3cc(F)nc(NC[C@@H](O)CO)c3)n2cc1S(=O)(=O)C(C)(C)C	< 50 nM
COc1cc2ncc(-c3cnn(CCCO)c3)n2cc1S(=O)(=O)C(C)(C)C	> 1000 nM
COc1ccc(CNc2cc(-c3cnc4ccc(S(=O)(=O)C(C)(C)C)cn34)cc(F)n2)cc1	250 to 1000 nM
